B1: DnaJ homolog subfamily C member 5, residues 16 to 77; numbered along this chain, Q9H3Z4 (parent)
chain: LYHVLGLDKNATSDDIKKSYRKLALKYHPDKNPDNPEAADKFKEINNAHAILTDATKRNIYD

Variants of: B1
Assay: abundance fitness (aPCA) (normalised: wild type 0, dead -1); higher = more abundant; growth selection in yeast, the domain comes from the species named
Conditions: Homo sapiens
value_type: abundance fitness
// no unit string in output, number only

Guide cases for abundance fitness, answers given:
>  <biosequence>
LYHVLGLDKNATSDDIKKSYRKLALKYHPDKNPDNPEAADKFKEINNALAILTDATKRNIYD

>  <abundance fitness>
-0.291

$$$$
>  <biosequence>
LYHVLGLDKNATSDDIKKSYRKLARKYHPDKNPDNPEAADKFKEINNAHAILTDATKRNIYD

>  <abundance fitness>
-0.069

$$$$
>  <biosequence>
LYHVLGLDKNATSDDIKKSYRKLALKYHPDFNPDNPEAADKFKEINNAHAILTDATKRNIYD

>  <abundance fitness>
-0.371

$$$$
>  <biosequence>
LYHVLGLDKNATSDEIKKSYRKLALKYHPDKNPDNPEAADKFKEINNAHAILTDATKRNIYD

>  <abundance fitness>
-0.067

$$$$
>  <biosequence>
LYHVLGLDKNATSDDIKKSYRKLALKYHPDKNPDNPEAADKFKETNNAHAILTDATKRNIYD

>  <abundance fitness>
-0.216

$$$$

Could you now look at the following variant, please?
Given the variant `LYHVLGLDKNATSDDIKKSYRKLALKYHPDKFPDNPEAADKFKEINNAHAILTDATKRNIYD` , what is its reported abundance fitness?
-0.24

Hello, the source for this data is the Human Domainome abundance scans (Beltran et al. 2025), in case you need it.
